# STUDY TARGET: K-Ras G12V (Homo sapiens, UniProt P01116, G12V)
# Sequence (P01116 1-188 isoform P01116-2 G12V): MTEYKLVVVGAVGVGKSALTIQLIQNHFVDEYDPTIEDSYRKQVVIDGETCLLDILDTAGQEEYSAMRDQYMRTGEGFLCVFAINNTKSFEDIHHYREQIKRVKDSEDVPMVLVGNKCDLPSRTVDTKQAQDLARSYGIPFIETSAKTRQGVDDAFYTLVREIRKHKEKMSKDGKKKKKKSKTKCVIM
# METHOD: HTRF resonance energy transfer assay, K-Ras G12V / SOS1 interaction
# ASSAY CONDITIONS: HTRF assay of Example 5; read-out: IC50 against K-Ras G12V
pIC50: −log10 of the molar value.
QUANTITY KIND: pIC50

# annotated cases, reported pIC50 shown
- COMPOUND: "C[C@H]1COc2c(Cl)c(-c3ccc(F)c4sc(N)c(C#N)c34)c(F)c3nc(OC[C@@]45CCCN4C[C@H](F)C5)nc(c23)N1CC(F)F [Compound 1088]"
  STUDY TARGET: "K-Ras G12V (Homo sapiens, UniProt P01116, G12V)"
  pIC50: "> 7.00"
- COMPOUND: "C#Cc1c(F)ccc2cc(O)cc(-c3nc4c5c(nc(OC[C@@]67CCCN6C[C@H](F)C7)nc5c3F)N(c3ccccc3)CCO4)c12 [Compound 948]"
  STUDY TARGET: "K-Ras G12V (Homo sapiens, UniProt P01116, G12V)"
  pIC50: "> 7.00"

// switching to the query compound
## Task Entry under review: N#Cc1c(N)sc2c(F)ccc(-c3c(Cl)c4c5c(nc(OC[C@@]67CCCN6C[C@H](F)C7)nc5c3F)N(CC3(C#N)CC3)CCO4)c12 [Compound 798] . Reported pIC50?
## Result > 7.00

The reported numbers originate from patent US12209102B2.
